Origin of the recorded values: the supplement of paper PMC6757056

B1: library; a variant is named by its letters at N, in order (parent)
chain: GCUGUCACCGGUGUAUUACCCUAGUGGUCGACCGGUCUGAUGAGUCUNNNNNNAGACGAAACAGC

# Variants of: B1
# assay_text: FACS-Seq fitted mean relative fluorescence mCherry/BFP without ligand (log10 relative fluorescence); ligand: hypoxanthine (xanthine aptamer); higher = higher reporter protein expression
# assay_conditions: HEK293T, ligand present: no
Examples of variants with documented FACS-Seq fitted mean (log10) follow.
parameter: FACS-Seq fitted mean (log10)

>>> df
    variant_annotation                     parameter  measurement
 0              AUUUUG  FACS-Seq fitted mean (log10)        0.224
 1              AAACCU  FACS-Seq fitted mean (log10)        0.484
 2              GAUUUG  FACS-Seq fitted mean (log10)        0.162
 3              UCCGUU  FACS-Seq fitted mean (log10)       -0.463
 4              UAAUAA  FACS-Seq fitted mean (log10)        0.267
 5              ACGACU  FACS-Seq fitted mean (log10)         0.28
 6              UGAGAA  FACS-Seq fitted mean (log10)        0.552
 7              ACGGGA  FACS-Seq fitted mean (log10)        0.166
 8              UCAUAA  FACS-Seq fitted mean (log10)        0.754
 9              UGGAGC  FACS-Seq fitted mean (log10)         0.45
10              CUUUAU  FACS-Seq fitted mean (log10)       0.0718
11              AUGCCA  FACS-Seq fitted mean (log10)       0.0727
12              AGGGGC  FACS-Seq fitted mean (log10)        0.795
13              AAGGUG  FACS-Seq fitted mean (log10)      -0.0635
14              UCAGUU  FACS-Seq fitted mean (log10)      -0.0872
15              GAUGAG  FACS-Seq fitted mean (log10)       0.0708
16              GCAGUG  FACS-Seq fitted mean (log10)        0.155
17              UGCAGG  FACS-Seq fitted mean (log10)        0.297
18              GUCAGU  FACS-Seq fitted mean (log10)         0.34
19              GCGCCC  FACS-Seq fitted mean (log10)        0.221
20              AUAGUG  FACS-Seq fitted mean (log10)        0.213
21              GAGCUA  FACS-Seq fitted mean (log10)        0.221
22              GACCUG  FACS-Seq fitted mean (log10)        0.408
23              GAACAA  FACS-Seq fitted mean (log10)        0.477
24              AGCAGG  FACS-Seq fitted mean (log10)       0.0745
25              CCAGCC  FACS-Seq fitted mean (log10)       -0.754
26              AACUCG  FACS-Seq fitted mean (log10)        0.382
27              GAUUAC  FACS-Seq fitted mean (log10)        0.748
28              UGACGG  FACS-Seq fitted mean (log10)        0.484
29              UACCUA  FACS-Seq fitted mean (log10)         0.48
30              UGGCUU  FACS-Seq fitted mean (log10)        0.674
31              GAGCAA  FACS-Seq fitted mean (log10)        0.362
32              CCAGAG  FACS-Seq fitted mean (log10)        0.628
33              AUCGAU  FACS-Seq fitted mean (log10)        0.371
34              GAAGUU  FACS-Seq fitted mean (log10)       -0.155
35              GGUGAG  FACS-Seq fitted mean (log10)       -0.242
36              GGAGCU  FACS-Seq fitted mean (log10)        0.211
37              AACGAA  FACS-Seq fitted mean (log10)       -0.123
38              GCGUAU  FACS-Seq fitted mean (log10)        0.549
39              AUGAAG  FACS-Seq fitted mean (log10)       -0.113
40              GUAAUG  FACS-Seq fitted mean (log10)         0.27
41              AGCCGG  FACS-Seq fitted mean (log10)      -0.0509
42              UUGGCG  FACS-Seq fitted mean (log10)        0.088
43              GAAUCG  FACS-Seq fitted mean (log10)         0.14
44              ACUGAG  FACS-Seq fitted mean (log10)        0.241
45              UAGUCC  FACS-Seq fitted mean (log10)        0.327
46              GCUAUU  FACS-Seq fitted mean (log10)        0.263
47              AUCGAG  FACS-Seq fitted mean (log10)        0.263
48              AACAGG  FACS-Seq fitted mean (log10)          0.1
49              UAUGUG  FACS-Seq fitted mean (log10)      -0.0408
50              UCUAAU  FACS-Seq fitted mean (log10)        0.308
51              GAUCGG  FACS-Seq fitted mean (log10)        0.125
52              GGGAUG  FACS-Seq fitted mean (log10)       0.0328
53              GGGCAA  FACS-Seq fitted mean (log10)       0.0453
54              GUGAUG  FACS-Seq fitted mean (log10)        0.204
55              UAACGG  FACS-Seq fitted mean (log10)       0.0785
56              GCAUAU  FACS-Seq fitted mean (log10)        0.326
57              AGACAA  FACS-Seq fitted mean (log10)        0.177
58              UGACGA  FACS-Seq fitted mean (log10)        0.285
59              UUGCUU  FACS-Seq fitted mean (log10)        0.227
60              GUUACC  FACS-Seq fitted mean (log10)       -0.307
61              UGAUUC  FACS-Seq fitted mean (log10)         0.59
62              UGUCGG  FACS-Seq fitted mean (log10)       0.0812
63              CCAAGC  FACS-Seq fitted mean (log10)        0.126
64              GUUGAG  FACS-Seq fitted mean (log10)        0.255
65              GAAAAA  FACS-Seq fitted mean (log10)        0.653
66              UACACU  FACS-Seq fitted mean (log10)       -0.295
67              AAAAUG  FACS-Seq fitted mean (log10)        0.362
68              GGUGGC  FACS-Seq fitted mean (log10)        0.217
69              AUCAUA  FACS-Seq fitted mean (log10)        0.467
70              GAGAGC  FACS-Seq fitted mean (log10)        0.164
71              UCAUCA  FACS-Seq fitted mean (log10)         0.87
72              GGAGAA  FACS-Seq fitted mean (log10)        0.538
73              UGAACU  FACS-Seq fitted mean (log10)       -0.346
74              CAUCGA  FACS-Seq fitted mean (log10)        0.435
75              AGCAUU  FACS-Seq fitted mean (log10)       -0.328
76              GUGGUA  FACS-Seq fitted mean (log10)        0.478
77              GGACCG  FACS-Seq fitted mean (log10)        0.219
78              GUAAUU  FACS-Seq fitted mean (log10)        0.444
79              UAUAAU  FACS-Seq fitted mean (log10)        0.434
80              UUACAC  FACS-Seq fitted mean (log10)        0.362
81              AAAUAU  FACS-Seq fitted mean (log10)       -0.168
82              AUGAGG  FACS-Seq fitted mean (log10)      -0.0108
